experiment: inhibitors of Chlamydomonas gravitaxis, primary screen, whole organism, Chlamydomonas reinhardtii, WT vs cilia-less mutant, absorbance, 96-well (AID 463189); conditions: OD600 absorbance, 2 days, at 10 µM, active compounds read high;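 also: 0% = wild type cc124 cells in DMSO and 100% = ciliumless bld1 mutant cells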
readout label: inhibition (%)
Report as a plain number; the unit % is understood.

Q: Look up inhibition for this compound: CC(C)(C)NC(=O)/C=N/O
Result: 25.5

Q: Try this compound too: C=CCn1c(SCC(=O)c2ccc(NS(=O)(=O)c3ccccc3)cc2)nnc1-c1cccs1
Result: -10.7

Q: What do we get for COc1cccc(C2/C(=C(\O)c3ccc4c(c3)OCCO4)C(=O)C(=O)N2CCCN(C)C)c1OC (configuration not stated) ?
Result: 18.1

Q: Now consider CCCCc1[nH]c(=O)c(C#N)c2c1CSC(C)(C)C2 .
Result: 0.152

Q: And the next one, O=C(Cc1ccccc1)Nc1cccc(-c2nnc(-c3ccco3)o2)c1 ?
Result: -2.78

Q: Thanks! And Cc1ccc(CNC(=O)c2cc3c(=O)n4ccccc4nc3n(CC3CCCO3)c2=N)cc1 (configuration not stated) ?
Result: 32.5

Q: Same thing, different compound: Cc1cc(=O)oc(C)c1C(=O)NCC(C)C
Result: -17.5

Q: Cool, now C=CCNc1nc(NCc2ccccc2)c(C#N)c2c1CN(C)CC2
Result: 21.1

Q: Query O=C(CN1C2=NCCN2c2ccccc21)N1CCOCC1 next
Result: -8.14

Q: Also need COc1ccc(C2CC(c3ccccc3)Nc3nc(N)nn32)cc1 (configuration not stated) , thanks.
Result: -15

Q: Would you kindly repeat that for CCCCOC(=O)c1ccc(NC(=O)CSc2nncn2C)cc1 ?
Result: 5.5

Q: Same again, this time with Cc1cc(CCC(=O)O)c(C)cc1CCC(=O)O
Result: 1.89

Q: CC(C(=O)N(C)C)N(C#N)c1nc(N(C)C)nc(N(C)C)n1 (configuration not stated) , same question.
Result: 26.6

Q: Also CCC(=O)Nc1c(C#N)c2nc3ccccc3nc2n1C1CCCCC1 ?
Result: 18.8

Q: Lookup CC(O)CNc1nc2c(c(=O)n(C)c(=O)n2C)n1CCc1ccccc1 (configuration not stated)
Result: 23

Q: Entry to check: Cc1cccc(-c2nnc3n2N=C(c2ccc(Br)cc2)CS3)c1
Result: -0.766

Q: What would you report for Cc1cccc(-c2nnc3n2N=C(c2ccccc2)CS3)c1 ?
Result: 44.7

Q: Do the same for CCOC(=O)C1=C(N)n2c(s/c(=C\c3ccco3)c2=O)=C(C(=O)OC(C)C)C1c1ccco1 (configuration not stated) please
Result: 27.2

Q: Queued: COc1ccc(-n2ncc3c(Nc4cccc(C)c4)ncnc32)cc1
Result: 3.81

Q: Query OC1(C2(O)CC(c3ccccc3)ON2)CCCCC1 (configuration not stated) next
Result: 0.004

Q: Could you do the same for COC(=O)Sc1nc(N2CCOCC2)c2c(c1C#N)CC(C)(C)OC2 , please?
Result: 24.4

Q: Next compound: O=S(=O)(c1cccc2nsnc12)N1CCN(C/C=C/c2ccccc2)CC1
Result: 45.8

Q: Next up: COC(=O)C(NC(=O)c1ccco1)(Nc1ccc(Br)cn1)C(F)(F)F (configuration not stated)
Result: 4.54

Q: Please answer likewise for C(=N\n1cnnc1)/c1ccccn1
Result: 16.5

Q: Another compound to check: CCCSc1nnc(NC(=O)Nc2ccccc2)s1
Result: -6.45

Q: Do the same for Cc1ccc(-c2n[nH]c(=O)c3ccccc23)cc1S(=O)(=O)NCCN1CCOCC1 please
Result: 19.7

Q: Next compound up: O=C(c1ccc(=O)oc1)N1CCN(C(c2ccccc2)c2ccccc2)CC1
Result: 4.32

Q: Next up: Cc1ccccc1-n1c(=O)/c(=C\c2ccco2)s/c1=C(/C#N)C(=O)Nc1ccccc1
Result: -0.051

Q: Check O=C(NCCC1=CCCCC1)c1ccc(=O)oc1 too.
Result: 20.7

Q: Please answer likewise for CC(C)c1nc(N2CCOCC2)c(C#N)c2c1COC(C)(C)C2
Result: -30

Q: Same again, this time with CCOC(=O)/C(C#N)=C1/SC(CCO)C(=O)N1c1ccccc1 (configuration not stated)
Result: -8.39

Q: Also Cc1c(C)[n+](=O)c2c(n1[O-])CCC2 ?
Result: 38.1

Q: Also need CCc1nc2c(sc3nc(N4CCOCC4)c4c(c32)CC(C)(C)OC4)c(=O)o1 , thanks.
Result: -8.15

Q: Then what about the compound CCCc1cc(Nc2c(C)n(C)n(-c3ccccc3)c2=O)n2c(nc3ccccc32)c1C#N ?
Result: 0.457

Q: How about this compound: COc1cccc(CNc2ncc(Br)cc2Br)c1O
Result: 5.51

Q: Also need CC(C)CCNc1nc2c(cc1C#N)COC(C)(C)C2 , thanks.
Result: -19.8

Q: Now consider Cc1ccc(Cn2ncc3c(N4CCOCC4)ncnc32)cc1 and answer again.
Result: -4.03

Q: And the next one, O=c1cc(-c2ccco2)nc(-c2cccs2)o1 ?
Result: 22.8

Q: Would you mind doing Cc1ccc(S(=O)(=O)NC(=O)Nc2ncc3c(n2)CC(c2ccco2)CC3=O)cc1 (configuration not stated) as well?
Result: -13.7

Q: Then CCOC(=O)C1=C(N)N2C(=O)CSC2=C(C(=O)OC)C1 ?
Result: -0.259

Q: Try this compound too: Fc1ccc2[nH]c3c(N4CCSCC4)ncnc3c2c1
Result: 5.41

Q: Here is the next compound: Cc1ccc2cc(CNC(C)C)c(=O)[nH]c2c1
Result: -6.41

Q: What about this compound? C/C(=N\O)c1c(C)c2ccccc2n1C
Result: 15.1

Q: Param item: O=c1c2c3c(sc2n2cnnc2n1C1CCCCC1)CCC3
Result: 33.2

Q: Next compound: C=CCc1cccc(/C=N/n2cnnc2)c1O
Result: -8.96

Q: Same question for CCc1nc(N2CCCC2)c(C#N)c2c1CCCC2 please.
Result: -11.4

Q: Quick one: CC(=O)/C(C#N)=C1\NC(=O)C(Cc2ccccc2)S1 (configuration not stated)
Result: 3.86
